Target: T1, human GM-CSFRα (human, UniProt P15509 23-400)
T1 sequence: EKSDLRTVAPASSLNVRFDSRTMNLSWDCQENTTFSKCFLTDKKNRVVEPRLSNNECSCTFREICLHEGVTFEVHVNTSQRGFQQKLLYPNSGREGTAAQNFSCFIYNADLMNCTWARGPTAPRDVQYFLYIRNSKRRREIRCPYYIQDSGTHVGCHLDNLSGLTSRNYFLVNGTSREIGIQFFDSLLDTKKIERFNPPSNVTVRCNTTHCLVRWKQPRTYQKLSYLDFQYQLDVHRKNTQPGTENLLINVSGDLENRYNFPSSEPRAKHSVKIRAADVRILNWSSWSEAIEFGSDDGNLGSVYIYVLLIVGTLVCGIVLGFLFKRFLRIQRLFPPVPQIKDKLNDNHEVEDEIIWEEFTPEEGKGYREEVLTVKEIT
Experiment: cell-based or functional assay
Listing of entries alongside the reported IC50, monocyte TNFα release assay (1 nM human GM-CSF).
Enter your answer as a number in nM; do not include the unit.

Antibody 2 (antibody, V domains shown, also called Antibody 02; Ab2) VH: QVQLVQSGAEVKKPGASVKVSCKISGHSLSELSIHWVRQTPTKGFEWMGGFDPEENEIVYAQRFQGRVTMTEDTSIDTAYLTLSSLRSDDTAVYYCSIVGSFSGPALRPWGKGTMVTVSS VL: QAVLTQPSSVSGAPGQRVTISCTGSGSNIGAPYDVSWYQQLPGTAPKLLIYHNNKRPSGVPDRFSASKSGTSASLAITGLQADDEADYYCQSYDSSLSGSVFGGGTKVTVL: 0.103
Antibody 10 (antibody, V domains shown, also called Ab10) VH: QVQLVQSGAEVKKPGASVKVSCKISGHSLSELSIHWVRQTPTKGFEWMGGFDPEENEIVYAQRFQGRVTMTEDTSIDTAYLTLSSLRSDDTAVYYCAIVGSFSGLAYRPWGKGTMVTISS VL: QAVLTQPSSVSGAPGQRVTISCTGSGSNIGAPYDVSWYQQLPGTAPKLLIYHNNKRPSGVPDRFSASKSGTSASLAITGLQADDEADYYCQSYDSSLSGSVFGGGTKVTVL: 0.139
Antibody 9 (antibody, V domains shown) VH: QVQLVQSGAEVKKPGASVKVSCKISGHSLSELSIHWVRQTPTKGFEWMGGFDPEENEIVYAQRFQGRVTMTEDTSIDTAYLTLSSLRSDDTAVYYCAIVGSFSPVTYGLWGQGTMVTVSS VL: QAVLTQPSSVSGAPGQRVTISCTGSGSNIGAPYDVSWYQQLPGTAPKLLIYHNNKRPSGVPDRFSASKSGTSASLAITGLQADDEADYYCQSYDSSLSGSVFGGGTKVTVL: 0.074

// next entry
Reported IC50, monocyte TNFα release assay (1 nM human GM-CSF) of Antibody 5 (antibody, V domains shown, also called Antibody 05; Ab5) VH: QVQLVQSGAEVKKPGASVKVSCKISGHSLSELSIHWVRQTPTKGFEWMGGFDPEENEIVYAQRFQGRVTMTEDTSIDTAYLTLSSLRSDDTAVYYCAIVGSFSGYPYRPWGQGTMVTVSS VL: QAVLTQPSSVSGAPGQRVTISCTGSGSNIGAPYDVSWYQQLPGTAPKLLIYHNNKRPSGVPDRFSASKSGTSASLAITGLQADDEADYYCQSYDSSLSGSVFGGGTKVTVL : 0.067
